Experiment: folding enthalpy; higher = less favourable; fluorescence melt of hairpins on a sequencing array, two-state fit
Details: sodium 0.088 M
assay.readout: folding enthalpy (kcal/mol)

>>> df
                                    chain     assay_readout  reported_measurement
 0  GCGCACGGAAACACGCGC ((((..(....)..))))  folding enthalpy                 -32.9
 1  GTACCCGGAAACGGGTGC (.(((((....))))).)  folding enthalpy                 -20.1
 2        GATCTTTACAAGATC ((((((...))))))  folding enthalpy                 -33.2
 3  GCATTTACGAAAGTATGC (((..(((....))))))  folding enthalpy                 -22.2
 4  GCCACGCGAAAGCATCGC ((.(.((....)).).))  folding enthalpy                 -7.48
 5  GCATAAGCGAAAGCTTGC (((..(((....))))))  folding enthalpy                 -14.7
 6  GCTGCGCCGAAAGGCAGC (((..(((....))))))  folding enthalpy                 -11.5
 7  GAAATGCGAAAGCACTTC (((.(((....))).)))  folding enthalpy                 -17.1
 8    CGCTCGGAAACGATGCG ((((((....))).)))  folding enthalpy                 -35.4
 9  GGACCCCGAAAGGGATCC (((.(((....))).)))  folding enthalpy                 -26.9
10  GCTTCCGGAAACGGAGGC ((.((((....)))).))  folding enthalpy                 -36.4
11      GATCGGGAACCCGATC ((((((....))))))  folding enthalpy                 -42.4
12      GATCTCGTGAGAGATC ((((((....))))))  folding enthalpy                   -31
13  GCTGTTACGAAAGTAAGC (((..(((....))))))  folding enthalpy                 -21.1
14      GATCAATTCATTGATC ((((((....))))))  folding enthalpy                 -50.7
15  GTGTCTGGAAACAGACGC (.(((((....))))).)  folding enthalpy                 -33.4
16  GGGACCGCGAAAGCGCCC (((..(((....))))))  folding enthalpy                 -12.5
17      GATCTTCGTAAAGATC ((((((....))))))  folding enthalpy                 -40.8
18  GCCGGGCGAAAGCGCAGC ((.(.((....)).).))  folding enthalpy                 -13.2
19              GCGGCTATCCGC ((((....))))  folding enthalpy                 -20.1
20  GCTACGCGAAAGCTTAGC ((((.((....)).))))  folding enthalpy                 -20.8
21      GATCCAGTGGTGGATC ((((((....))))))  folding enthalpy                 -34.6
22  GAAGACCGAAAGGTATTC (((.(((....))).)))  folding enthalpy                 -32.5
23  GCAGCTGGAAACGGTTGC (((.(.(....).).)))  folding enthalpy                 -29.1
24  GTTGTCGAAAGACTCAAC ((((((....)))..)))  folding enthalpy                 -11.7
